Listing: IC50 of selected compounds
- systemUnderTest: UniProt:P21802
- assayName: Biochemical FGFR2 Caliper assay

                                   compound          result
0  C#Cc1ncc(-c2c(-c3ccc(Oc4nccc(C)n4)cc3)c3c(N)ncnc3n2C)cc1F  250 to 1000 nM

Fill blank: measured IC50 of the compound C=C(C)C(=O)N1CC=C(c2c(-c3ccc(Oc4cccc(C)n4)cc3)c3c(N)ncnc3n2C)[C@H]1C (single isomer, unassigned) is ____.
250 to 1000 nM

Fill blank: measured IC50 of the compound C=C(C)C(=O)Nc1ccc(-c2c(N3CC[C@H](C(=O)N4CCCC4)CC3=O)c3c(N)ncnc3n2C)cc1 (single isomer, unassigned) is ____.
1000 to 100000 nM

Fill blank: measured IC50 of the compound C#Cc1cc2c(cn1)-c1c(C3=CC[C@H](C(=O)N4CCC[C@H]4C#N)CC3)c3c(N)ncnc3n1CCC2 is ____.
250 to 1000 nM

Fill blank: measured IC50 of the compound C=C(C)C(=O)Nc1cc(-c2c(-c3ccc(C(=O)N4CCCC4)cc3)c3c(N)ncnc3n2C)n(C)n1 [Example 866] is ____.
< 100 nM

Fill blank: measured IC50 of the compound C=C(C)C(=O)Nc1ccc(-c2c(-c3ccc4occc4c3)c3c(N)ncnc3n2C)cc1 is ____.
1000 to 100000 nM

Fill blank: measured IC50 of the compound C=C(C)C(=O)Nc1ccc(-c2c(-c3cccc(N)c3)c3c(N)ncnc3n2C)cc1 is ____.
1000 to 100000 nM

====

- systemUnderTest: FGFR2 (Homo sapiens (Human))
- assayName: FGFR2 Biochemical Caliper Assay
readoutType: IC50

                                   compound             result
0  C=CC(=O)N1CCC(c2c(-c3ccc(COc4ccccc4)cc3)c3c(N)ncnc3n2C)C1 (stereo not drawn)      100 to 250 nM
1  C=C(C)C(=O)Nc1ccc(-c2c(-c3ccc(C(=O)N(C)Cc4noc(C)n4)cc3)c3c(N)ncnc3n2C)cc1     250 to 1000 nM
2  C=CC(=O)N1CCC(c2c(-c3ccc(-c4noc(C)n4)cc3)c3c(N)ncnc3n2C)C1 (stereo not drawn)     250 to 1000 nM
3  C=C(C)C(=O)Nc1ccc(-c2c(-c3ccc(C(=O)N(C)CC4(OC)CC4)cc3)c3c(N)ncnc3n2C)cc1  1000 to 100000 nM
4  C=C(C)C(=O)Nc1ccc(-c2c(-c3ccc(C(=O)NCC(F)(F)F)cc3)c3c(N)ncnc3n2C)cc1           < 100 nM
5  C=C(C)C(=O)Nc1ccc(-c2c(-c3ccc(C(=O)NC4CC(F)C4)c(F)c3)c3c(N)ncnc3n2C)cc1 (stereo not drawn)      100 to 250 nM
6  C=C(C)C(=O)Nc1ccc(-c2c(-c3ccc4c(c3)OCCN4C)c3c(N)ncnc3n2C)cc1           < 100 nM
7  C=C(C)C(=O)Nc1ccc(-c2c(-c3ccc(Oc4nccc(C#N)n4)c(F)c3)c3c(N)ncnc3n2C)cc1           < 100 nM
8  C=CC(=O)N1CCC(c2c(-c3ccc(CN4CC[C@@H](O)C4)cc3)c3c(N)ncnc3n2C)C1 (stereo partly drawn)  1000 to 100000 nM
9  C=C(C)C(=O)Nc1ccc(-c2c(-c3ccc(C(=O)N4CC5(CCC5)C4)cc3)c3c(N)ncnc3n2C)cc1  1000 to 100000 nM

Fill blank: measured IC50 of the compound C=C(C)C(=O)Nc1ccc(-c2c(-c3ccc4c(c3)CCC4C(=O)N(C)C)c3c(N)ncnc3n2C)cc1 (stereo not drawn) is ____.
1000 to 100000 nM

Fill blank: measured IC50 of the compound C=C(C)C(=O)Nc1ccc(-c2c(-c3ccc(Oc4cnc(C)cn4)c(F)c3)c3c(N)ncnc3n2C)cc1 is ____.
1000 to 100000 nM

Fill blank: measured IC50 of the compound C=C(C)C(=O)Nc1ccc(-c2c(-c3ccc(Oc4ncc(C)cn4)cc3)c3c(N)ncnc3n2C)cc1 is ____.
100 to 250 nM

Fill blank: measured IC50 of the compound C=CC(=O)Nc1ccc(-c2c(-c3ccc(C(=O)N4CCCC4)cc3)c3c(N)ncnc3n2C)cc1C is ____.
< 100 nM

Fill blank: measured IC50 of the compound C=C(C)C(=O)Nc1ccc(-c2c(-c3ccc(Cc4ncccn4)c(OC)c3)c3c(N)ncnc3n2C)cc1 is ____.
1000 to 100000 nM

====

- systemUnderTest: FGFR2 (Homo sapiens (Human), UniProt P21802)
- Sequence (P21802 22-821): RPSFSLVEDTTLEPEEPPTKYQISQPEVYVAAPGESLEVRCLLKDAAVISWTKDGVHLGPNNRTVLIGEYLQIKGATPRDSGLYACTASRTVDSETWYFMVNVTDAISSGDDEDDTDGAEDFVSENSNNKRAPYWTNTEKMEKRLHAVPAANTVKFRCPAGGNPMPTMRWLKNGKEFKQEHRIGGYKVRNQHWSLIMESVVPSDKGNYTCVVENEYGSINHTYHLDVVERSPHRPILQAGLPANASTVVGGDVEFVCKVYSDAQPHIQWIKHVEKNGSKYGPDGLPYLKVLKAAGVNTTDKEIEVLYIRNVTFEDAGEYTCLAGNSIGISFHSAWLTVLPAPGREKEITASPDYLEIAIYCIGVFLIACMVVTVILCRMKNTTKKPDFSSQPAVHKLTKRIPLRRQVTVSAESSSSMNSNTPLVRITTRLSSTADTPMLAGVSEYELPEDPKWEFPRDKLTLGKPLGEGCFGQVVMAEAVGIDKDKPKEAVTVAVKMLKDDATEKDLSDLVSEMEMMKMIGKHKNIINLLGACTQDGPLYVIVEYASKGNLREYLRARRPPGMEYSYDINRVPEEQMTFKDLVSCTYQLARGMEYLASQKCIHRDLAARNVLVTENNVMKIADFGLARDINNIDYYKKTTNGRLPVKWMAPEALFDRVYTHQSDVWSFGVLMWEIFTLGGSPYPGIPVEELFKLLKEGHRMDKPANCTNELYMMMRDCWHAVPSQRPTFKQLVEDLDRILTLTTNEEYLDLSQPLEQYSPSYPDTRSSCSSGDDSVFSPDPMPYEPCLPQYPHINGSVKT
- assayName: FGFR2 Biochemical Caliper Assay
Listing: IC50 of selected molecules

The examples below pair each entry with its known result.
>>> df
                                   molecule             result
0  C=C(C)C(=O)Nc1ccc(-c2c(-c3ccc(C(=O)N4CC5CCC4C5)cc3)c3c(N)ncnc3n2C)cc1 (stereo not drawn)           < 100 nM
1  C=CC(=O)N1CC[C@H](c2c(-c3ccc(Oc4ncccn4)cc3)c3c(N)ncnc3n2CCN2CCOCC2)C1  1000 to 100000 nM
2  C=C(C)C(=O)Nc1ccc(-c2c(-c3ccc(C(=O)N4CCC5(CCC5)C4)cc3)c3c(N)ncnc3n2C)cc1     250 to 1000 nM
3  C=C(C)C(=O)Nc1ccc(-c2c(-c3ccc(C(=O)N4CCC[C@H]4C#N)cc3)c3c(N)ncnc3n2C)cc1           < 100 nM
4  C=C(C)C(=O)Nc1ccc(-c2c(-c3cnn(Cc4cccc(C)n4)c3)c3c(N)ncnc3n2C)cc1  1000 to 100000 nM
5  C=C(C)C(=O)Nc1ccc(-c2c(-c3ccc(C(=O)N4CCCC[C@@H]4C)cc3)c3c(N)ncnc3n2C)cc1           < 100 nM

Fill blank: measured IC50 of the molecule C=CC(=O)N1CCC(c2[nH]c3ncnc(N)c3c2-c2ccc(Oc3cccc(C)n3)cc2)C1 (stereo not drawn) is ____.
< 100 nM

Fill blank: measured IC50 of the molecule C=C(C)C(=O)Nc1ccc(-c2c(-c3ccc(Oc4nccc(C)n4)cc3)c3c(N)ncnc3n2C)c(F)c1 is ____.
< 100 nM

Fill blank: measured IC50 of the molecule C=C(C)C(=O)Nc1ccc(-c2c(-c3ccc4c(ccn4S(C)(=O)=O)c3)c3c(N)ncnc3n2C)cc1 is ____.
1000 to 100000 nM

Fill blank: measured IC50 of the molecule C=C(C)C(=O)Nc1ccc(-c2c(-c3ccc(Oc4ncc(F)cn4)cn3)c3c(N)ncnc3n2C)cc1 is ____.
< 100 nM

Fill blank: measured IC50 of the molecule C=CC(=O)N(C)C1CC(n2cc(-c3c(-c4ccc(Oc5cccc(C)n5)cc4)c4c(N)ncnc4n3C)cn2)C1 (stereo not drawn) is ____.
< 100 nM

====

Listing: pIC50 of selected compounds
- systemUnderTest: FGFR2 (Homo sapiens (Human))
- assayName: FGFR2 Biochemical Caliper Assay
pIC50: −log10 of the molar value.

>>> print(df.to_string())
                                   compound  readouttype        result
0  C=C(C)C(=O)Nc1ccc(-c2c(-c3ccc(Oc4ccc(F)nc4)c(O)c3)c3c(N)ncnc3n2C)cc1        pIC50  4.00 to 6.00
1  C=C(C)C(=O)Nc1ccc(-c2c(-c3ccc(C(O)c4ncccn4)c(OC)c3)c3c(N)ncnc3n2C)cc1 (stereo not shown)        pIC50  6.00 to 6.60
2  C=C(C)C(=O)Nc1ccc(-c2c([C@H]3CC[C@@H](C(=O)N4CCCC4)CC3)c3c(N)ncnc3n2C)cc1        pIC50  4.00 to 6.00

Hi! What's the reported pIC50 for CC#CC(=O)N1CCC(c2c(-c3ccc(Oc4cccc(C)n4)cc3)c3c(N)ncnc3n2C)C1 (stereo not shown) on FGFR2 (Homo sapiens (Human))?
6.60 to 7.00

====

Listing: IC50 of selected molecules
- systemUnderTest: FGFR2 (Homo sapiens (Human), UniProt P21802)
- assayName: FGFR2 Biochemical Caliper Assay

>>> df
                                   molecule  readouttype             result
0  C=C(C)C(=O)Nc1ccc(-c2c(-c3ccc(S(=O)(=O)NCC(C)C)cc3)c3c(N)ncnc3n2C)cc1         IC50     250 to 1000 nM
1  C=C(C)C(=O)Nc1ccc(-c2c(-c3ccc(Oc4cccc(C)n4)cc3)c3c(N)ncnc3n2C)cc1OC         IC50      100 to 250 nM
2  C=C(C)C(=O)Nc1ccc(-c2c(-c3ccc(OC4CCN(C)CC4)nc3)c3c(N)ncnc3n2C)cc1         IC50  1000 to 100000 nM
3  C=C(C)C(=O)Nc1ccc(-c2c(-c3ccc(C(=O)NCC4(CO)CC4)cc3)c3c(N)ncnc3n2C)cc1         IC50           < 100 nM
4  C=CC(=O)N1CCC(c2c(-c3ccc(Oc4ncccn4)cc3)c3c(N)ncnc3n2CCN(C)C)C1 (stereo not drawn)         IC50  1000 to 100000 nM

Fill blank: measured IC50 of the molecule C=C(C)C(=O)Nc1ccc(-c2c(-c3ccc(Oc4ncc(F)cn4)c(OC)c3)c3c(N)ncnc3n2C)cc1 is ____.
250 to 1000 nM

Fill blank: measured IC50 of the molecule C=C(C)C(=O)Nc1ccc(-c2c(-c3ccc(C(=O)N4CC5CC4(C)C5)cc3)c3c(N)ncnc3n2C)cc1 is ____.
< 100 nM

Fill blank: measured IC50 of the molecule C=CC(=O)N1CCC(c2c(-c3ccc(Oc4ncccn4)cc3)c3c(N)ncnc3n2C2CCOCC2)C1 (stereo not drawn) is ____.
250 to 1000 nM

Fill blank: measured IC50 of the molecule C=C(C)C(=O)Nc1ccc(-c2c(-c3ccc(-c4cocn4)cc3)c3c(N)ncnc3n2C)cc1 is ____.
250 to 1000 nM

Fill blank: measured IC50 of the molecule C=CC(=O)N1CCCC(n2cc(-c3c(-c4ccc(Oc5cccc(C)n5)cc4)c4c(N)ncnc4n3C)cn2)C1C (stereo not drawn) is ____.
< 100 nM
